Test system: T1, Chimeric protein #1 (mPro-hCat-mC-term-mmh) (mouse; human, UniProt Q80W65 35-694)
T1 chain: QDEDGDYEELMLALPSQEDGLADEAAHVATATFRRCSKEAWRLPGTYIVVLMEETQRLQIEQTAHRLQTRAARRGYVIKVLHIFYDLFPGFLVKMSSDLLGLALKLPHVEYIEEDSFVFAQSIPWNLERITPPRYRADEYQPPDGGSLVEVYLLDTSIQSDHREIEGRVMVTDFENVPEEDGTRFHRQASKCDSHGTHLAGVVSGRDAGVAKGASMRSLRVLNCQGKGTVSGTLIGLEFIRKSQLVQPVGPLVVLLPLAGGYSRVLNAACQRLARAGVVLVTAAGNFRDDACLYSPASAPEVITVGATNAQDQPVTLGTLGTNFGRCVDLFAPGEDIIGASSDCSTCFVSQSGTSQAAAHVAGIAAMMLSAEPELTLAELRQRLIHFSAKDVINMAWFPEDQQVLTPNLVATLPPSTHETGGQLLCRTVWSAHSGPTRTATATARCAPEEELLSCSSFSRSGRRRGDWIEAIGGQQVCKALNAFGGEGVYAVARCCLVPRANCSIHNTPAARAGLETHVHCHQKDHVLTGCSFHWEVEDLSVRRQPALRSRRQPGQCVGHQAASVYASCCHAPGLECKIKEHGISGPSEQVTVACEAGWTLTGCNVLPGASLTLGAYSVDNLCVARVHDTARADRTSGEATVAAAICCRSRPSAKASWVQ
Assay remarks: ELISA, mAb coated, 1.2 nM antigen;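 note: antigen allowed to bind for 1 h at room temperature, then captured protein revealed with an HRP-linked polyclonal anti-myc antibody and read as optical density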
Field: OD. Provide a value for each of the binders that follow.

Would you kindly share the measured OD for H1M498 (antibody, V domains shown, Hybridoma-derived chimeric antibody (human variable, mouse constant)) VH: EVQLVESGGGLVKPGGSLRLSCAASGFTFSSYSMDWVRQAPGKGLEWVSSISSSSSYIYYADSVKGRFTISRDTAKNSLYLQMNSLRDEDTAVYYCAREGSSRLFDYWGQGTLVTVSS VL: DIQMTQSPSTLSASVGDRVTITCRASQSISSWLAWYQQRPGKAPKLLIYKASSLEGGVPSRFSGSGSGTEFTLTISSLQPEDFATYYCQQYNSYWYTFGQGTKLEIK ?
< 0.4 od

Would you kindly share the measured OD for H1H318P (antibody, V domains shown, Fully human antibody cloned from B cells, made in CHO cells) VH: QVQLQESGPGLVKPSETLSLTCTVSGDSINTYYWSWFRQPPGKGLEWIGYIYYSGTTNYNPSLKSRVTISIDTPRNQFSLKLISVTAADTAVYYCARERITMIRGVTLYYYSYGMDVWGQGTTVTVSS VL: DIQMTQSPSFLSASVGDRVTITCWASQDISSYLAWYQQKPGIAPKLLIYAASTLQSGVPSRFGGSGSGTEFTLTISSLQPEDFATYYCQQLNSYPRTFGQGTKVEIK ?
> 1 od

Would you kindly share the measured OD for H1M495 (antibody, V domains shown, Hybridoma-derived chimeric antibody (human variable, mouse constant)) VH: EVQLVESGGGLVQPGRSLRLSCAASGFTFDDYAMHWVRQAPGKGLEWVSGINWNSGSIGYADSVKGRFTISRDNAKHSLYLQMNSLRPEDTALYYCVKEVTTGYYYGMDVWGQGTTVTVSS VL: DIQLTQSPSFLSASVGDRVTITCWASQGISSYLAWYQKKPGKAPNLLIYDASTLQSGVPSRFSGSGSGTEFTLTLSSLQPEDFATYYCQQLNIYPFTFGPGTKVDIK ?
< 0.4 od

Would you kindly share the measured OD for H1H320P (antibody, V domains shown, Fully human antibody cloned from B cells, made in CHO cells) VH: QVQLVQSGAEVKKPGASVKVSCKASGYTFTNYGISWVRQAPGQGLELMGWISGYNGNTNYAQELQARVTMTTDTSTSTAYMELRNLRSDDTAVYYCARDRVVVAAANYYFYSMDVWGQGTTVTVSS VL: DVVMTQSPLSLSVTLGQPASISCRSSQSLVYSDGDTYLNWFQQRPGQSPRRLIYKVSNRDSGVPDRFSGSGSGTAFTLKISGVEAEDVGVYYCMQATHWPRTFGQGTKVEIK ?
< 0.4 od
